assay: The drug is tested on Bacteroides coprophilus strain: DSM18228 for biotransformation. The drug concentrations were measured before and after a 12-h incubation by liquid-chromatography-coupled mass spectrometry (LC–MS); settings: 2 µM

{"columns": ["molecule", "Bacterial Biotransformation"],
 "data": [
  ["CCOc1ccc2nc(S(N)(=O)=O)sc2c1 [ETHOXZOLAMIDE]", "Compound metabolized"],
  ["O=C(Nc1ccccc1)OCC(CN1CCCCC1)OC(=O)Nc1ccccc1 (stereo not drawn)", "Compound NOT metabolized"],
  ["CN1C(=O)CCS(=O)(=O)C1c1ccc(Cl)cc1 (stereo not drawn)", "Compound NOT metabolized"],
  ["CC(=O)CC(c1ccccc1)c1c(O)c2ccccc2oc1=O (stereo not drawn)", "Compound NOT metabolized"],
  ["CCN(CC)CCNC(=O)c1cc(Cl)c(N)cc1OC [METOCLOPRAMIDE]", "Compound NOT metabolized"],
  ["COCCc1ccc(OCC(O)CNC(C)C)cc1.COCCc1ccc(OCC(O)CNC(C)C)cc1.O=C(O)C(O)C(O)C(=O)O (stereo not drawn) [METOPROLOL TARTRATE]", "Compound NOT metabolized"],
  ["CCOC(=O)C1=C[C@]2(CC)CCCN3CCc4c(n1c1ccccc41)[C@@H]32", "Compound NOT metabolized"],
  ["CCCc1nc(C(C)(C)O)c(C(=O)OCc2oc(=O)oc2C)n1Cc1ccc(-c2ccccc2-c2nnn[nH]2)cc1", "Compound metabolized"]
]}
